The values you see were collected from ChEMBL document CHEMBL1122283.

Test system: Rattus norvegicus
ASSAY NOTES: In vivo percent inhibition of angiotensin I pressor response 15 min after 1 mg/kg, iv administration in spontaneously hypertensive rat (SHR)
Type: functional
ASSAY CONTEXT: Rattus norvegicus, iv, 0.25 h
MEASURED PROPERTY: inhibition in vivo at 1 mg/kg
Be sure to follow the number with its unit.

Form field inhibition in vivo at 1 mg/kg, entry C[C@H](CCC(=O)O)C(=O)N1c2ccccc2CC1C(=O)O (stereo not given in full) : 94%

The compound identified as CC(C)C(CCC(=O)O)C(=O)N1c2ccccc2CC1C(=O)O (stereo not given) registered its inhibition in vivo at 1 mg/kg at 77%

inhibition in vivo at 1 mg/kg for C[C@H](CS)C(=O)N1CCC[C@H]1C(=O)O is 90%

According to the records, this compound CCOC(=O)[C@@H](CCC(=O)N1c2ccccc2CC1C(=O)O)CCc1ccccc1 (stereo not given in full) displays inhibition in vivo at 1 mg/kg of 17%

# inhibition in vivo at 1 mg/kg (compound: CC(CC(C)C(=O)N1c2ccccc2CC1C(=O)O)C(=O)O (stereo in doubt; 6m) ) is 76%
